Tested on: primary rat microglia
Assay text: Cell toxicity (dead cells, size <150 μm2) in LPS assay
Measurement setup: primary microglia HTS, LPS stimulation, toxicity = cell size <150 μm2
Listed here: items and their measured LPS % cell toxicity.

>  <Compound>
Nc1nc(=O)[nH]cc1F

>  <LPS % cell toxicity [%]>
1

$$$$
>  <Compound>
O=[N+]([O-])O[C@@H]1CO[C@H]2[C@@H]1OC[C@@H]2O [Isosorbide Mononitrate]

>  <LPS % cell toxicity [%]>
1

$$$$
>  <Compound>
C[N+]1(C)[C@@H]2CC[C@H]1C[C@@H](OC(=O)C(O)c1ccccc1)C2 (some centres unmarked) [Homatropine Methylbromide]

>  <LPS % cell toxicity [%]>
0

$$$$
>  <Compound>
C[C@](N)(Cc1ccc(O)c(O)c1)C(=O)O

>  <LPS % cell toxicity [%]>
0

$$$$
>  <Compound>
CCCCCC(=O)O[C@]1(C(C)=O)CC[C@H]2[C@@H]3CCC4=CC(=O)CC[C@]4(C)[C@H]3CC[C@@]21C [Hydroxyprogesterone Caproate]

>  <LPS % cell toxicity [%]>
0

$$$$
>  <Compound>
C[C@H](O)C(=O)Nc1c(I)c(C(=O)NC(CO)CO)c(I)c(C(=O)NC(CO)CO)c1I

>  <LPS % cell toxicity [%]>
0

$$$$
>  <Compound>
CC(=O)[C@@]1(O)CC[C@H]2[C@@H]3CCC4=CC(=O)CC[C@]4(C)[C@H]3CC[C@@]21C [Hydroxyprogesterone]

>  <LPS % cell toxicity [%]>
1

$$$$
>  <Compound>
CCC(NC(C)C)C(O)c1ccc(O)c(O)c1 (centres unmarked)

>  <LPS % cell toxicity [%]>
0

$$$$

====

Recorded Fibrin % cell toxicity values for a group of molecules are listed next.
System: primary rat microglia
Assay text: Cell toxicity (dead cells, size <150 μm2) in coated fibrin (cFib) assay;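 note: share of dead cells sized under 150 µm2 at 10 µM in fibrin-stimulated microglia HTS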
Measurement setup: primary microglia HTS, fibrin assay, dead cells (size <150 μm2)
Counter-ions that a name gives are not always drawn.

>  <Molecule>
C[C@]12C=CC(=O)C=C1CC[C@@H]1[C@@H]2[C@@H](O)C[C@@]2(C)[C@H]1CC[C@]2(O)C(=O)COC(=O)CCC(=O)O [Prednisolone Hemisuccinate]

>  <Fibrin % cell toxicity (%)>
3

$$$$
>  <Molecule>
c1ccc(CN(CC2=NCCN2)c2ccccc2)cc1

>  <Fibrin % cell toxicity (%)>
1

$$$$
>  <Molecule>
CCOC(=O)OC(C)OC(=O)[C@@H]1N2C(=O)[C@@H](NC(=O)[C@H](N)c3ccccc3)[C@H]2SC1(C)C (stereo partly shown) [Bacampicillin Hydrochloride]

>  <Fibrin % cell toxicity (%)>
1

$$$$
>  <Molecule>
CCCc1ncc(C[n+]2ccccc2C)c(N)n1

>  <Fibrin % cell toxicity (%)>
1

$$$$

====

Test system: primary rat microglia
Assay text: Cell toxicity (dead cells, size <150 μm2) in coated fibrin (cFib) assay;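 note: share of dead cells sized under 150 µm2 at 10 µM in fibrin-stimulated microglia HTS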
Measurement setup: primary microglia HTS, 10 μM, fibrin assay, cell size <150 μm^2 as marker of toxicity
Structures can show the parent of a compound that is named as a salt.
Collected Fibrin % cell toxicity values appear next to each entry.

>  <Compound>
COc1ccc(C(CN(C)C)C2(O)CCCCC2)cc1 (stereo not shown) [Venlafaxine, Venlafaxine Hydrochloride]

>  <Fibrin % cell toxicity / %>
1

$$$$
>  <Compound>
Nc1ccc(S(=O)(=O)Nc2ccnn2-c2ccccc2)cc1 [Sulfaphenazole]

>  <Fibrin % cell toxicity / %>
1

$$$$
>  <Compound>
COc1cc(C(=O)N2CCOCC2)cc(OC)c1OC [Trimetozine]

>  <Fibrin % cell toxicity / %>
1

$$$$
>  <Compound>
CC(=O)O[C@H]1C[C@@H]2CC[C@@H]3[C@H](CC[C@@]4(C)[C@H]3C[C@H]([N+]3(C)CCCCC3)[C@@H]4OC(C)=O)[C@@]2(C)C[C@@H]1N1CCCCC1 [Vecuronium Bromide]

>  <Fibrin % cell toxicity / %>
1

$$$$
>  <Compound>
COc1cc(O)c(C(=O)c2ccccc2)cc1S(=O)(=O)O [Sulisobenzone]

>  <Fibrin % cell toxicity / %>
0

$$$$
>  <Compound>
O=c1cc[nH]c(=O)[nH]1 [Uracil]

>  <Fibrin % cell toxicity / %>
0

$$$$
>  <Compound>
Cc1nnc(NS(=O)(=O)c2ccc(N)cc2)s1 [Sulfamethizole]

>  <Fibrin % cell toxicity / %>
1

$$$$
>  <Compound>
Cc1ccnc(NS(=O)(=O)c2ccc(N)cc2)n1 [Sulfamerazine]

>  <Fibrin % cell toxicity / %>
1

$$$$
>  <Compound>
CN1CC(=O)N2[C@H](c3ccc4c(c3)OCO4)c3[nH]c4ccccc4c3C[C@@H]2C1=O [Tadalafil]

>  <Fibrin % cell toxicity / %>
1

$$$$
>  <Compound>
CNS(=O)(=O)Cc1ccc2[nH]cc(CCN(C)C)c2c1 [Sumatriptan]

>  <Fibrin % cell toxicity / %>
1

$$$$
>  <Compound>
S=C1SCN(Cc2ccccc2)CN1Cc1ccccc1 [Sulbentine]

>  <Fibrin % cell toxicity / %>
1

$$$$
>  <Compound>
CCCCCCCCCCCCCCCC[N+](C)(C)CCN(Cc1ccc(OC)cc1)c1ncccn1 [Thonzonium Bromide]

>  <Fibrin % cell toxicity / %>
0

$$$$
>  <Compound>
COc1ccc(NS(=O)(=O)c2ccc(N)cc2)nn1 [Sulfamethoxypyridazine]

>  <Fibrin % cell toxicity / %>
1

$$$$
>  <Compound>
C[C@]12Cc3c[nH]nc3C[C@@H]1CC[C@@H]1[C@@H]2CC[C@@]2(C)[C@H]1CC[C@]2(C)O [Stanozolol]

>  <Fibrin % cell toxicity / %>
1

$$$$
>  <Compound>
NC[C@H]1O[C@H](O[C@H]2[C@H](O)[C@@H](O[C@H]3O[C@H](CO)[C@@H](O)[C@H](N)[C@H]3O)[C@H](N)C[C@@H]2N)[C@H](N)C[C@@H]1O [Tobramycin]

>  <Fibrin % cell toxicity / %>
1

$$$$
>  <Compound>
CC1(C)S[C@@H]2[C@H](NC(=O)[C@H](C(=O)O)c3ccsc3)C(=O)N2[C@H]1C(=O)O [Ticarcillin Disodium]

>  <Fibrin % cell toxicity / %>
0

$$$$
>  <Compound>
CCOC(=O)NNc1nncc2ccccc12 [Todralazine Hydrochloride]

>  <Fibrin % cell toxicity / %>
1

$$$$
>  <Compound>
O=C(O)Cc1cc(I)c(Oc2ccc(O)c(I)c2)c(I)c1 [Tiratricol]

>  <Fibrin % cell toxicity / %>
1

$$$$
>  <Compound>
COc1cc(C(=O)NCc2ccc(OCCN(C)C)cc2)cc(OC)c1OC [Trimethobenzamide]

>  <Fibrin % cell toxicity / %>
1

$$$$
>  <Compound>
Cc1onc(-c2ccccc2)c1-c1ccc(S(N)(=O)=O)cc1 [Valdecoxib]

>  <Fibrin % cell toxicity / %>
1

$$$$
>  <Compound>
CCCc1nc2c(C)cc(-c3nc4ccccc4n3C)cc2n1Cc1ccc(-c2ccccc2C(=O)O)cc1 [Telmisartan]

>  <Fibrin % cell toxicity / %>
0

$$$$
>  <Compound>
C[N+](C)(C)CCOC(=O)CCC(=O)OCC[N+](C)(C)C [Succinylcholine]

>  <Fibrin % cell toxicity / %>
1

$$$$
>  <Compound>
Cc1cc2nc3ccc(N(C)C)cc3[s+]c2cc1N [Tolonium Chloride]

>  <Fibrin % cell toxicity / %>
1

$$$$
>  <Compound>
O=C(O)[C@@H](S)[C@@H](S)C(=O)O [Succimer]

>  <Fibrin % cell toxicity / %>
0

$$$$
>  <Compound>
CCN(C(C)=O)c1cccc(-c2ccnc3c(C#N)cnn23)c1 [Zaleplon]

>  <Fibrin % cell toxicity / %>
1

$$$$
>  <Compound>
CCCCC/C=C\CCC(=O)N[C@H]1[C@H](Oc2c3cc4cc2Oc2ccc(cc2Cl)[C@@H](O[C@@H]2O[C@H](CO)[C@@H](O)[C@H](O)[C@H]2NC(C)=O)[C@@H]2NC(=O)[C@H](NC(=O)[C@@H]4NC(=O)[C@H]4NC(=O)[C@@H](Cc5ccc(c(Cl)c5)O3)NC(=O)[C@H](N)c3ccc(O)c(c3)Oc3cc(O)cc4c3)c3ccc(O)c(c3)-c3c(O[C@H]4O[C@H](CO)[C@@H](O)[C@H](O)[C@@H]4O)cc(O)cc3[C@@H](C(=O)O)NC2=O)O[C@H](CO)[C@@H](O)[C@@H]1O [Teicoplanin [a(2-1) Shown]]

>  <Fibrin % cell toxicity / %>
1

$$$$
>  <Compound>
Cc1cc2cc3c(C)cc(=O)oc3c(C)c2o1 [Trioxsalen]

>  <Fibrin % cell toxicity / %>
1

$$$$
>  <Compound>
COc1cccc(C2(O)CCCCC2CN(C)C)c1 (stereo not shown) [Tramadol]

>  <Fibrin % cell toxicity / %>
1

$$$$
